Recorded measurements of solubility change mitosis (log2), one per entry
# Tested on: HeLa Kyoto;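 also: synchronized HeLa Kyoto cells (double thymidine block for G1/S, nocodazole release for mitosis), protein amounts in NP-40 versus SDS lysates quantified by mass spectrometry, three biological replicates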
# Test summary: solubility change mitosis vs G1/S (difference of NP-40 vs SDS log2 ratios) (log2 ratio difference); higher = more soluble in mitosis
Lab note: record just the number, no unit beside it.

Solved entries:
MLLWPLRGWAARALRCFGPGSRGSPASGPGPRRVQRRAWPPDKEQEKEKKSVICVEGNIASGKTTCLEFFSNATDVEVLTEPVSKWRNVRGHNPLGLMYHDASRWGLTLQTYVQLTMLDRHTRPQVSSVRLMERSIHSARYIFVENLYRSGKMPEVDYVVLSEWFDWILRNMDVSVDLIVYLRTNPETCYQRLKKRCREEEKVIPLEYLEAIHHLHEEWLIKGSLFPMAAPVLVIEADHHMERMLELFEQNRDRILTPENRKHCP [TK2]	0.0925
MADRDSGSEQGGAALGSGGSLGHPGSGSGSGGGGGGGGGGGGSGGGGGGAPGGLQHETQELASKRVDIQNKRFYLDVKQNAKGRFLKIAEVGAGGNKSRLTLSMSVAVEFRDYLGDFIEHYAQLGPSQPPDLAQAQDEPRRALKSEFLVRENRKYYMDLKENQRGRFLRIRQTVNRGPGLGSTQGQTIALPAQGLIEFRDALAKLIDDYGVEEEPAELPEGTSLTVDNKRFFFDVGSNKYGVFMRVSEVKPTYRNSITVPYKVWAKFGHTFCKYSEEMKKIQEKQREKRAACEQLHQQQQQQQEETAAATLLLQGEEEGEED [PURA]	0.112
MVGVKPVGSDPDFQPELSGAGSRLAVVKFTMRGCGPCLRIAPAFSSMSNKYPQAVFLEVDVHQCQGTAATNNISATPTFLFFRNKVRIDQYQGADAVGLEEKIKQHLENDPGSNEDTDIPKGYMDLMPFINKAGCECLNESDEHGFDNCLRKDTTFLESDCDEQLLITVAFNQPVKLYSMKFQGPDNGQGPKYVKIFINLPRSMDFEEAERSEPTQALELTEDDIKEDGIVPLRYVKFQNVNSVTIFVQSNQGEEETTRISYFTFIGTPVQATNMNDFKRVVGKKGESH [TXNL1]	-0.112

Name the reported solubility change mitosis (log2) value associated with the sequence MSFRGGGRGGFNRGGGGGGFNRGGSSNHFRGGGGGGGGGNFRGGGRGGFGRGGGRGGFNKGQDQGPPERVVLLGEFLHPCEDDIVCKCTTDENKVPYFNAPVYLENKEQIGKVDEIFGQLRDFYFSVKLSENMKASSFKKLQKFYIDPYKLLPLQRFLPRPPGEKGPPRGGGRGGRGGGRGGGGRGGGRGGGFRGGRGGGGGGFRGGRGGGFRGRGH [GAR1]
1.41

Which solubility change mitosis (log2) value is on record for MFCVTPPELETKMNITKGGLVLFSANSNSSCMELSKKIAERLGVEMGKVQVYQEPNRETRVQIQESVRGKDVFIIQTVSKDVNTTIMELLIMVYACKTSCAKSIIGVIPYFPYSKQCKMRKRGSIVSKLLASMMCKAGLTHLITMDLHQKEIQGFFNIPVDNLRASPFLLQYIQEEIPDYRNAVIVAKSPASAKRAQSFAERLRLGIAVIHGEAQDAESDLVDGRHSPPMVRSVAAIHPSLEIPMLIPKEKPPITVVGDVGGRIAIIVDDIIDDVDSFLAAAETLKERGAYKIFVMATHGLLSSDAPRRIEESAIDEVVVTNTIPHEVQKLQCPKIKTVDISMILSEAIRRIHNGESMSYLFRNIGLDD [PRPSAP2] ?
-0.121
